Tested on: HOP-62
Assay: NCI tumour cell line growth inhibition, 48 h
Activity calls are given as the source filed them. Cut-off read from the data, not from the text of the source: active = GI50 up to about 1.1 µM and inactive = higher.
Your answer must be one of the following: Yes (active), No (inactive)

[[record]]
compound = "CC(=O)OCCC1c2ccccc2-n2nc(-c3ccccc3)c(O)c21 (configuration not stated)"
class_assignment = "No"

[[record]]
compound = "CC12C=CC(C)(C3C(=O)C4C(C(=O)C31)C1(C)C=CC4(C)[S+]1[O-])[S+]2[O-] (configuration not stated)"
class_assignment = "No"

[[record]]
compound = "CCOP(=O)(C/C(O)=C1\\C(=O)C(CCCNC(=O)OC(C)(C)C)N(Cc2ccc(OC)c(OC)c2)C1=O)OCC (configuration not stated)"
class_assignment = "No"

[[record]]
compound = "O=C(CCCn1ccnc1[N+](=O)[O-])NCCn1cncc1[N+](=O)[O-]"
class_assignment = "No"

[[record]]
compound = "O=C(COc1ccc(Cl)c(Cl)c1)N(Cc1ccccc1)Cc1ccc[n+](Cc2ccc(Cl)cc2S(=O)(=O)F)c1"
class_assignment = "No"

[[record]]
compound = "CNC1=C(C)C(=O)C2=C(C1=O)C(COC(N)=O)C1(OC)C3NC3CN21 (configuration not stated)"
class_assignment = "Yes"

[[record]]
compound = "CC1=NC=C(O)c2ccccc2O1"
class_assignment = "No"

[[record]]
compound = "Cn1c2ccccc2c2c3c(c4c5ccccc5n(C)c4c21)C(=O)N(c1ccccc1)C3=O"
class_assignment = "No"


-- ask Please let me know the test result on file for CCOC(=O)C(C)c1nc2cc(C(F)(F)F)ccc2[nH]c1=O (configuration not stated) .
-- reply No

-- ask Please let me know the test result on file for `CSc1ncc2c(n1)sc1c(=O)n(-c3ccccc3)cnc12` .
-- reply No

-- ask Please let me know the test result on file for `O=C(c1cc2c(c3ccccc13)NCCN=C2C(F)(F)F)C(F)(F)F` .
-- reply No

-- ask Please let me know the test result on file for CC1=CC(C)C(C)N(CCNC(=O)Nc2ccccc2)c2ccccc21 (configuration not stated) .
-- reply No

-- ask Please let me know the test result on file for CC1=CC(N2C(=O)C(C)=CC2O)NC1=O (configuration not stated) .
-- reply No

-- ask Please let me know the test result on file for `CC(=O)/N=C1\NC(=O)/C(=C/c2ccc(/C=C3/C(=O)N/C(=N\C(C)=O)N3C)cc2)N1C` .
-- reply No

-- ask Please let me know the test result on file for `C=C(C)C(=O)O[C@H]1CC2=C[C@@H](C[C@@]3(C)O[C@@H]3[C@H]3OC(=O)C(=C)[C@@H]31)OC2=O` .
-- reply No

-- ask Please let me know the test result on file for `COC(=O)Cc1c([C@H]2[C@H](CC(=O)OC)c3ccccc3N2S(=O)(=O)c2ccc(C)cc2)[nH]c2ccccc12` .
-- reply No
